Study System: UniProt Q15761
Sequence (Q15761 whole entry): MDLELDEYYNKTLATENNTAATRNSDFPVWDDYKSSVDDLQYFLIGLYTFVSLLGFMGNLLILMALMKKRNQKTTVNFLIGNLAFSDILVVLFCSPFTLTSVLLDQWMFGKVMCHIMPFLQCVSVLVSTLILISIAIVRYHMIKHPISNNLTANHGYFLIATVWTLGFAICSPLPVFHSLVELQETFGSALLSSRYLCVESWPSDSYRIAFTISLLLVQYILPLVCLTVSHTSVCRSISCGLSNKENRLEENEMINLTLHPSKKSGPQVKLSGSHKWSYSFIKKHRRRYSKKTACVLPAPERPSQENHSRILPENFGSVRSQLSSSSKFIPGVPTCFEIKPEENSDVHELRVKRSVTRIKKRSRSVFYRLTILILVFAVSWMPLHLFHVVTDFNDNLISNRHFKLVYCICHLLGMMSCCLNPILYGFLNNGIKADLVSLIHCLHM
Assay Details: Inhibitory activity against neuropeptide Y receptor type 5 by using [125I]PYY as radioligand expressed in COS-1 cells
pIC50: −log10 of the molar value.
Lab note: compare pIC50 against 6. Equal or greater, write True. Smaller, write False.

>  <Compound>
CN(Cc1ccc(Br)cc1OC(F)(F)F)CC1CCC(CNc2nc(N(C)C)c3ccccc3n2)CC1 (stereo not drawn)

>  <Group Label>
False

$$$$
>  <Compound>
CN(C)c1nc(NC2CCC(NCc3ccc(Br)cc3OC(F)(F)F)CC2)nc2ccccc12 (stereo not drawn)

>  <Group Label>
False

$$$$
>  <Compound>
CN(C)c1nc(NC2CCN(Cc3ccc(Br)cc3OC(F)(F)F)CC2)nc2ccccc12

>  <Group Label>
False

$$$$
>  <Compound>
CN(C)c1nc(N[C@H]2CC[C@@H](CNS(=O)(=O)c3ccc(Br)cc3OC(F)(F)F)CC2)nc2ccccc12

>  <Group Label>
True

$$$$
>  <Compound>
CN(C)c1nc(NC2CCC(CNC(=O)c3ccc(Br)cc3OC(F)(F)F)CC2)nc2ccccc12 (cis isomer)

>  <Group Label>
False

$$$$
>  <Compound>
CN(C)c1nc(NC2CCC(CNCc3ccc(Br)cc3OC(F)(F)F)CC2)nc2ccccc12 (cis isomer)

>  <Group Label>
False

$$$$
>  <Compound>
CN(C)c1nc(NC[C@H]2CC[C@H](CNS(=O)(=O)c3ccc(Br)cc3OC(F)(F)F)CC2)nc2ccccc12

>  <Group Label>
True

$$$$
